# testSummary: protein stability index of a GFP-peptide fusion (GPS, HEK-293T) (PSI 1-6); higher = more stable;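 further: 24-mer peptide tiles fused after GFP, lentivirally expressed, FACS-sorted into six equal bins by GFP/DsRed ratio, decoded by Illumina sequencing, PSI is the read-weighted mean bin number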
# settings: treatment: DMSO; c terminus: a fixed tail appended
Answer no if protein stability index is under 5, and yes if it is 5 or more.

residueCodes | label
EIDEKVTDLVQFLLFKYQMKEPIT [MAGEA10] | no
NGQLMAVGGFDGTTYLKTIEVFDP [KLHL20] | no
DLNIQLLKDGYRLDEIPDDEDLDL [FAM219A] | yes
GLEDAGLDPHFVPTELWPQEAVPL [TEX19] | no
LTKAATSGVGIDGEVLSYLELAQF [RHOBTB1] | no

Could you tell me if the measured protein stability index of YNVYSTFQSHEPEFDYLKSLEIEE [PPP2R2B] reaches 5 or more?
no

Form field: protein stability index at least 5? Entry: KIRLRCQKGIPPSLRGRAWQYLSG [TBC1D10A]
no

Reported protein stability index at or above 5? SSNGNDNGNGKNGGLEHVPSSSSI [BNIP3L]
yes

Confirm if protein stability index reported for the sequence TSNGWGVTDCKHTEDVGVVCSDKR [LOXL2] is 5 or above.
no

Please tell me: is the sequence ICRVFSTSPAKDSLSFEDFLDLLS [CIB1] at or over 5 in terms of protein stability index?
no

Decide: is the reported value of protein stability index for PEMNGNGAVAPMDFTTAAEDQPIN [NOL4L] equal to or greater than 5?
yes

Reported protein stability index reaches at least 5 for KSGEGFIDFIGQVHKTKEQFGQDG [PTPRD] ?
no

* * *

# testSummary: protein stability index of a GFP-peptide fusion (GPS, HEK-293T) (PSI 1-6); higher = more stable
# settings: treatment: MLN4924 1 uM, 8 h; c terminus: a fixed tail appended
Field: protein stability index. Provide a value for each of the sequences that follow.
Give bare numbers.

Some solved cases for reference:
residueCodes | reportedValue
SFFLQIYLIMIFLGLYINFRHLYK [HACD3] | 2.52
RDLKPENILVTSGGTVKLADFGLA [CDK4] | 3.33
QNPAGELEGFQAQGHPPSLFPPKA [ATE1] | 4.82
IIDCGDIVWSLAFGSSVPEKQSRC [WSB1] | 2.35
PDKKKRPRRSLSISKNKKKASNSI [FAN1] | 4.76
ARFAEKEELMLVHSLEYIDLMETT [HDAC6] | 2.75
SPEKFQIEANFPRRVLPCIPSEEW [FAF2] | 3.79
MVWNQNGKSPSITFEYTLLQPPHE [ADAMTSL2] | 2.64

Provide the reported protein stability index of each entry below, same order.
1. VVYSKAASVPKVETVKSDNKDDDI [EIF5]
2. PKPEPPQLVLAYDYSREVNTTEEL [FEM1A]
3. SQLAGQVNVEMDAAPGVDLTRVLA [KRT15]
4. LPNYNWNSFGLRFGKREAAPGNHG [KISS1]
5. KGLSVEFALLADKAAQQGKQEEND [SNX8]
6. TGAACRLVEAVLSGEVLNGAAVVR [HDAC6]

1: 5.19; 2: 4.94; 3: 3.94; 4: 3.36; 5: 5.13; 6: 2.27

Please go through the list and note protein stability index for each sequence.
1. ERPLPNPEGLDSDFLAVLSDYPSP [SLA]
2. FQHHAKPNCFRKDPDINMHPFFFA [FADS1]

1. 4.58
2. 2.29

Give one value of protein stability index per listed sequence.
1. PDMETKLLFMTSRVRFGQQKRYQD [INTS3]
2. IIHHMRLQAKALQLIVTARTTRGL [INTS4]
3. SGGELFDFLAEKESLTEDEATQFL [DAPK3]
4. TAGEMVFVYENAKEGARNIRTSER [BTBD10]
5. QKQRLREILEQQQQERNDTNFHGV [ZNF277]
6. EQCIKLWLHALHLRQKGNRNTHKD [FEM1B]
7. TSHSLPESSVPSTVGCSSQHTPDQ [PLEKHN1]

3.09
2.26
4.96
3.98
4.59
2.59
5.28

State the recorded protein stability index for every item in the following list.
1. YAKKESDLNGAQIKLREYEAALNS [LMNB1]
2. HCHKRRTRSCSSASSRSQQSSKRS [CLK3]
3. VVFPYTSKSCMRAVLEYLYTGMFT [RHOBTB2]
4. VFVLIDEVESLTAARNACRAGTEP [TRIP13]

4.07
5.06
2.77
2.63

* * *

# testSummary: protein stability index of a GFP-peptide fusion (GPS, HEK-293T) (PSI 1-6); higher = more stable
# settings: treatment: MLN4924 1 uM, 8 h; c terminus: a fixed tail appended
recordedMetric: protein stability index
One number for each entry.

Below are worked cases with known answers.
residueCodes | reportedValue
VRKPAEAERYKLERLAEAEKSQLI [FLOT1] | 4.49
TPKAAWIREEGRCSSSDDDTDVDM [PBXIP1] | 5.19
MDDERYFNEMSAQGLRPRTVSSPI [CCDC6] | 4.16
DRLRDEELAELEDALRNLKCGSGA [TRADD] | 4.95
FSFRYQQELEEEIKELYENFCKHN [ATL3] | 2.86

Field: protein stability index. Fill in for each record below.
1. DPDGLVATYISEVHEHDGHLYLGS [APMAP]
2. LAGLSVGRSSLTACSLPLCACLLG [PXN]
3. SITEMFGEFRTGKTQICHTLAVTC [RAD51]
4. IKIVLINSFGAILQGSLFGLAGLL [SLC29A1]
5. LASISTYGFRGEALASISHVAHVT [MLH1]

1: 3.94; 2: 2.33; 3: 2.05; 4: 3.25; 5: 2.19

Provide reported protein stability index for each item, in the same order as listed.
1. LESSDLPVALLLAQHKDRSTQLEM [MNAT1]
2. KGGVQNFNKDLVQDCGFEHLVPVI [CEP70]
3. SNADQLMENIGAIQVLPKLSSSII [KCNAB2]

1. 3.53
2. 3.18
3. 3.23

* * *

# testSummary: protein stability index of a GFP-peptide fusion (GPS, HEK-293T) (PSI 1-6); higher = more stable
# settings: treatment: MLN4924 1 uM, 8 h; c terminus: a fixed tail appended
So basically: protein stability index at 4 or higher? That is Yes. Lower than 4? That is No.

# bool: protein stability index of QSRRTALATSPITVGDLGIVRRRS [YJU2B] >= 4
Yes

* * *

# testSummary: protein stability index of a GFP-peptide fusion (GPS, HEK-293T) (PSI 1-6); higher = more stable
# settings: treatment: MLN4924 1 uM, 8 h; c terminus: a fixed tail appended
I'd appreciate it if you could supply protein stability index values for the items below.
Numbers only.

Guide cases for protein stability index, answers given:
residueCodes | recordedMetric | reportedValue
PEHGDRVAELFCRRCRRCVCALCP [TRIM14] | protein stability index | 3.5
LDLKGNNLRAAGAEALGKLLQQNK [LRRC45] | protein stability index | 4.27
IKAVTHQVKFGQQNPRQVAQSEAE [ZC3H15] | protein stability index | 4.9

Can you give me protein stability index for all of these, one by one?
1. TSTVNSAREELMESRMRIESLSSQ [LMNB1]
2. WSQPITTGKAPSPRAAHACATVGN [KLHDC2]
3. LHAWQINWPARQRGTHAVVGVATA [SPSB4]

[4.51, 3.92, 2.31]

# batch: return protein stability index for each of the 6 sequences below
1. EDPYMMGRIACANVLSDLYAMGIT [SEPHS2]
2. RAPHKESTLPRSGSSGGQQPSGMK [CHCHD6]
3. LKKMGKRLDYLNLKGARLTVEQGC [FBXO39]
4. ICRVFSTSPAKDSLSFEDFLDLLS [CIB1]
5. ATCRLCGEQVGRGPGFHAGTSALW [ZBED3]
6. RRKPDPPKDENERSTCNVVQDEFL [DLC1]

2.36
5.05
2.67
2.2
2.39
5.33

Could you tell me protein stability index for each of these sequences? They are listed below.
1. GLEDAGLDPHFVPTELWPQEAVPL [TEX19]
2. PLGAGNLGPELIKESNANPIFMRK [DPCD]

1. 4.62
2. 4.54

Batch request: protein stability index for each of the following sequences.
1. HPRGWNDHVHILDTETFTWSQPIT [KLHDC2]
2. LRATVERMGLMKANHVFFLLYLLH [FADS1]
3. YRALLSGSNPPYLPFRDASFGNCT [CDC14A]
4. EPPHNLFCAPGSWEWNELDHIMEI [SERTAD3]

1: 2.71; 2: 2; 3: 2.49; 4: 3.07

* * *

# testSummary: protein stability index of a GFP-peptide fusion (GPS, HEK-293T) (PSI 1-6); higher = more stable
# settings: treatment: DMSO; c terminus: a fixed tail appended
For each entry below, report its protein stability index value.
Give bare numbers.

residueCodes | protein stability index
NVNRTTANNDHTVLSLACAGGHLA [ANKRD17] | 3.57

Lab note: each sequence below needs its protein stability index filled in.
1. SLIGHLQTLSPDMQGAYCTFPASV [DUSP5]
2. GRPPDPADWAVMDVVNYFRTVGFE [SAMD13]
3. FLTHFILMNDVIDTSGFPDLSDNR [FBXO33]

1. 2.07
2. 2.57
3. 2.41

Take each entry in turn and give its protein stability index.
1. SEAKSHSSADDASAWSNIQEAPLQ [FAN1]
2. GVFVGVISFGQLSDRFGRKKVYLT [SLC22A15]
3. AYISLVEEEDQHMKLSLGGSEMGL [KLHL13]
4. GQMSTPETPQPSPPGGSGSEPYKL [HNF4A]

1. 5.29
2. 2.82
3. 2.98
4. 5.16
